System: Trypanosoma brucei rhodesiense STIB 900 bloodstream forms
test description: In vitro trypanocidal activity (Alamar Blue assay, 72 h)
Format: cell-based
stated conditions: Trypanosoma brucei, 72 h, T. b. rhodesiense STIB 900 bloodstream forms, 72 h incubation, Alamar Blue; read-out: T.b.rhodesiense IC50
Procedure: Minimum essential medium (50 μl) supplemented according to a standard method, with 2-mercaptoethanol and 15% heat inactivated horse serum was added to each well of a 96-well microtiter plate. […] The plate was then read in a Spectramax Gemini XS microplate fluorometer (Molecular Devices Cooperation, Sunnyvale, CA, USA) using an excitation wavelength of 536 nm and emission wavelength of 588 nm. Fluorescence development was measured and expressed as percentage of the control. […]
Recorded IC50 values for a group of compounds are listed next.
Numbers only here, please. The scale is µg/mL.

// known answers, use as guide
Req: Look up IC50: `COc1cc(-c2oc3cc(O)cc(O)c3c(=O)c2OC)ccc1O`
Resp: 12.3

Req: Request the reported IC50 associated with `COc1cc(O)c2c(=O)c(OC)c(-c3ccc(O)cc3)oc2c1`
Resp: 19.4

Req: Quick check: IC50 of `O=c1c(O)c(-c2ccc(O)cc2)oc2cc(O)cc(O)c12` ?
Resp: 23.7

---
Req: Which IC50 value belongs to `COc1ccc(-c2oc3cc(OC)c(OC)c(O)c3c(=O)c2OC)cc1OC` ?
Resp: 4.7

* * *

Listing: IC50 of selected molecules
System: L6 cells
test description: Cytotoxicity in rat skeletal myoblast cell line (L6 cells)
Type: cell-based
stated conditions: rat skeletal myoblast L6 cells, cytotoxicity; read-out: L6 Cells IC50
Report only the number, with the unit µg/mL understood.

Known results for molecules:
Req: # value lookup — system L6 cells, readout IC50, item `COc1cc2oc(-c3ccc(O)cc3)c(OC)c(=O)c2c(O)c1OC`
Resp: 14

Req: Provide the documented IC50 with L6 cells as the system for `O=c1c(O)c(-c2ccc(O)cc2)oc2cc(O)cc(O)c12`
Resp: 100

Req: # returns recorded IC50 (system: L6 cells) for `COc1cc(-c2oc3cc(O)cc(O)c3c(=O)c2OC)ccc1O`
Resp: 6.64

Req: Under L6 cells: IC50 value of `COc1ccc(-c2oc3cc(OC)c(OC)c(O)c3c(=O)c2OC)cc1OC` ?
Resp: 46.2

As a next step, examine the molecule that follows.
Req: # returns recorded IC50 (system: L6 cells) for `COc1cc(O)c2c(=O)c(OC)c(-c3ccc(O)cc3)oc2c1`
Resp: 28.2

Data provenance is paper PMC4384300.
